# Test system: L1210 leukemia ip in BDF1 mice, survival T/C
# ASSAY_SUMMARY: NCI In Vivo Anticancer Drug Screen. Data for tumor model L1210 Leukemia (intraperitoneal) in B6D2F1 (BDF1) mice
# CONDITION: endpoint: mean survival time; dose: 200.0 mg/kg/injection; schedule: Q04DX003 (ip); vehicle: saline; higher = longer survival
Toxic doses and inconclusive results are not listed.
QUANTITY_NAME: T/C

Query: Using the record for c1ccc(COB(OCc2ccccc2)OCc2ccccc2)cc1 , report its T/C.
Result: 102 % of control

Query: Similarly, O=c1oc2ccccc2c(O)c1Oc1ccccc1 ?
Result: 91 % of control

Query: Similarly, O=C(CCCCCCCCC(=O)N/N=C/c1ccc(O)cc1)N/N=C/c1ccc(O)cc1 ?
Result: 92 % of control

Query: Similarly, COc1ccc(OC)c(/C=C2\N=C(c3ccccc3)OC2=O)c1 ?
Result: 96 % of control
